Data origin: PubChem BioAssay (EPA / NIEHS)

Read-out: Cyclin Dependent Kinase Inhibitor 1A (CDKN1A), CDKN1A (gene 1026)
Test: LTEA_HepaRG_CDKN1A: Life Technologies and Expression Analysis (LTEA) Assay for Cyclin Dependent Kinase Inhibitor 1A (CDKN1A) using HepaRG (AID 2283450)
Details: mRNA level, 48 h; actives raise or lower the signal
Method: LTEA_HepaRG is a cell based, multiplexed-readout assay that uses HepaRG, a human liver cell line, with measurements taken at 48 hours after chemical dosing on a 96-well plate.LTEA_HepaRG_CDKN1A is one of 102 assay component(s) measured in the LTEA HepaRG cell culture assay. It is a marker of Cell proliferation, survival, death.Data from the assay component LTEA_HepaRG_CDKN1A was analyzed into 1 endpoint. […]
The source made the active and inactive calls. Rule for the calls: active = hit-call score of the fitted dose curve at least 0.9, where 1 is the maximum; inactive = score below 0.9.
Use one of these outcomes when replying: 1 (yes) (active), 0 (no) (inactive)

The examples below pair each entry with its known result.
molecule	group.label
CC1(C(=O)Nc2ccc(O)c(Cl)c2Cl)CCCCC1	0 (no)
CCOP(=S)(Oc1cnc(C(C)(C)C)nc1)OC(C)C (stereo unspecified)	0 (no)
CCCCOC(=O)[C@@H](C)Oc1ccc(Oc2ccc(C#N)cc2F)cc1	0 (no)
COc1cccc(C(=O)NN(C(=O)c2cc(C)cc(C)c2)C(C)(C)C)c1C	0 (no)
C#CCC1=C(C)C(OC(=O)C2C(C=C(C)C)C2(C)C)CC1=O (stereo unspecified)	0 (no)
Cc1cc(C2CC2)nc(Nc2ccccc2)n1	0 (no)
C=C(C)[C@H]1Cc2c(ccc3c2O[C@@H]2COc4cc(OC)c(OC)cc4[C@@H]2C3=O)O1	1 (yes)
CCCSP(=O)(OCC)SCCC	0 (no)

Query string: Hi team, can someone confirm the assay call for CC(COc1ccc(Oc2ccccc2)cc1)Oc1ccccn1 (stereo unspecified) ?
Result string: 0 (no)

Query string: In this assay, the call recorded for CCOP(=S)(OCC)Oc1ccc([N+](=O)[O-])cc1 was what?
Result string: 0 (no)

* * *

read-out: Matrix Metallopeptidase 1 (MMP1), MMP1 (gene 4312); assay: BSK_hDFCGF_MMP1: BioMAP Diversity Plus: hDFCGF Assay for Matrix Metallopeptidase 1 (MMP1) Biomarker Activity (AID 2283064); details: primary human foreskin fibroblasts; actives raise or lower the signal
Calls of active or inactive are those of the source. How the source made its calls: active means hit-call score of the fitted dose curve at least 0.9, where 1 is the maximum; inactive means score below 0.9.
quantity: AC50

compound	quantity	observed.result
CCOC(=O)CC(SP(=O)(OC)OC)C(=O)OCC (stereo not given)	AC50	inactive
COc1cccc(C(=O)NN(C(=O)c2cc(C)cc(C)c2)C(C)(C)C)c1C	AC50	inactive
C#CC(C)(C)NC(=O)c1cc(Cl)cc(Cl)c1	AC50	inactive
CCC(=O)Nc1ccc(Cl)c(Cl)c1	AC50	inactive
CC[C@H](C)[C@H]1O[C@]2(C=C[C@@H]1C)C[C@@H]1C[C@@H](C/C=C(\C)[C@@H](O[C@H]3C[C@H](OC)[C@@H](O[C@H]4C[C@H](OC)[C@@H](NC)[C@H](C)O4)[C@H](C)O3)[C@@H](C)/C=C/C=C3\CO[C@@H]4[C@H](O)C(C)=C[C@@H](C(=O)O1)[C@]34O)O2	AC50	6.78 µM (active)

Notebook: CON=C(C(=O)OC)c1ccccc1CON=C(C)c1cccc(C(F)(F)F)c1 , AC50 read as 2.74 µM (active)

AC50 for CC(=NC#N)N(C)Cc1ccc(Cl)nc1 is inactive

AC50 in this record for CN1COCN(Cc2cnc(Cl)s2)C1=N[N+](=O)[O-] : inactive

GET /value?item= CC(Oc1cccc(Cl)c1)C(=O)O (stereo not given) &field=AC50 returns inactive

Value of AC50 reported for the compound CCOP(=S)(Oc1cnc(C(C)(C)C)nc1)OC(C)C (stereo not given) is inactive

* * *

assay: ATG_NRF2_ARE_CIS: Attagene CIS-FACTORIAL HepG2 Assay for human Nuclear Factor Erythroid 2 Related Factor 2 (NFR2) response to Antioxidant Response Elements (ARE) (AID 2282992); settings: HepG2 Attagene ARE/NRF2 reporter, transcription factor activity; actives raise or lower the signal
Activity calls are given as the source filed them. The calls were made as follows: active = hit-call score of the fitted dose curve at least 0.9, where 1 is the maximum; inactive = score below 0.9.
Hello, when you answer, please use one of the following outcomes: active, inactive

molecule	group.label
CCOC(=O)COc1cc(-c2nn(C)c(OC(F)F)c2Cl)c(F)cc1Cl	inactive
CC1(C(=O)Nc2ccc(O)c(Cl)c2Cl)CCCCC1	active
Cc1nn(-c2cc(NS(C)(=O)=O)c(Cl)cc2Cl)c(=O)n1C(F)F	inactive
CNC(=O)ON=C(C)SC	inactive

Continue with the molecule presented below.
Query string: Identify the outcome logged in this assay for the molecule shown: N#CSCSC#N
Result string: inactive

* * *

read-out: Cytochrome P450 2B6 (Homo sapiens); test: CLD_CYP2B6_48hr: CellzDirect (CLD) Gene Expression Assay for xenobiotic metabolism (CYP2B6) at 48 hours (AID 2283699);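 note: actives raise transcript level above DMSO so potency reflects induction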
Results filed as inconclusive are left out. Calls of active or inactive are those of the source. How the source made its calls: active means hit-call score of the fitted dose curve at least 0.9, where 1 is the maximum; inconclusive means response in the unintended direction; inactive means score below 0.9.
Your answer must be one of the following: active, inactive

Completed entries (count: 5):
compound	group.label
Nc1c(Cl)cc([N+](=O)[O-])cc1Cl	active
CSc1nc(NC(C)C)nc(NC(C)C)n1	active
O=C(O)c1cc(Oc2ccc(C(F)(F)F)cc2Cl)ccc1[N+](=O)[O-]	inactive
CON=C(C(=O)OC)c1ccccc1CON=C(C)c1cccc(C(F)(F)F)c1	inactive
CN(C)[C@@H]1C(=O)C(C(N)=O)=C(O)[C@@]2(O)C(=O)C3=C(O)c4c(O)cccc4[C@@](C)(O)[C@H]3[C@H](O)[C@@H]12	inactive

Query string: Check the results log: what was the call for CCOP(=O)(OCC)Oc1cc(C)nc(C(C)C)n1 ?
Result string: active

Query string: Dear all, I need the recorded test outcome for CN1COCN(Cc2cnc(Cl)s2)C1=N[N+](=O)[O-] , thank you.
Result string: inactive

Query string: Returns: the outcome recorded for CNc1cnn(-c2cccc(C(F)(F)F)c2)c(=O)c1Cl in this assay.
Result string: active

Query string: Record lookup: outcome of this test for CCOC(=O)CC(SP(=O)(OC)OC)C(=O)OCC (stereo not given) ?
Result string: active

Query string: Hi, sorry to bother you, what did the test record for CCC(=O)Nc1ccc(Cl)c(Cl)c1 ?
Result string: active

* * *

assay: BSK_LPS_SRB: Viability Assessment in the BioMAP Diversity Plus: LPS Assay (AID 2283079); conditions: primary human HUVEC with PBMC;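 note: total protein by sulforhodamine B absorbance as a cytotoxicity measure; measured one day after compound addition; fitted in both directions against DMSO so loss or gain of signal counts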
The source made the active and inactive calls. The calls were made as follows: active = hit-call score of the fitted dose curve at least 0.9, where 1 is the maximum; inactive = score below 0.9.
Answer with one of the outcomes active, inactive

Consider the worked cases shown below.
molecule	group.label
Nc1nc(N)nc(NC2CC2)n1	inactive
CCOC(=O)CC(SP(=O)(OC)OC)C(=O)OCC (stereo not given)	inactive
CSC1=N[C@@](C)(c2ccccc2)C(=O)N1Nc1ccccc1	active
O=c1ccc(=O)[nH][nH]1	inactive
Cc1nn(-c2cc(NS(C)(=O)=O)c(Cl)cc2Cl)c(=O)n1C(F)F	inactive
CCOP(=S)(OCC)SCCSCC	inactive

Query string: Which result was noted for this molecule in the test: COP(=O)(OC)SCn1c(=O)oc2cc(Cl)cnc21
Result string: active

Query string: Please share the test call associated with CC1(C(=O)Nc2ccc(O)c(Cl)c2Cl)CCCCC1 .
Result string: inactive

Query string: I'd appreciate the recorded outcome for CSc1nnc(C(C)(C)C)c(=O)n1N from this test.
Result string: inactive

Query string: Per the assay record, what outcome was assigned to CCc1cnc(C2=NC(C)(C(C)C)C(=O)N2)c(C(=O)O)c1 (stereo not given) ?
Result string: inactive

Query string: Tell me the assay call for CNC(=O)ON=C(SC)C(=O)N(C)C please.
Result string: inactive

* * *

assay: ATG_CRE_CIS: Attagene CIS-FACTORIAL HepG2 Assay for human cAMP Responsive Element (CRE) binding protein 3 (AID 2282926); conditions: HepG2 CRE cis-reporter, Attagene multiplexed mRNA; actives raise or lower the signal
The source made the active and inactive calls. How the source made its calls: active means hit-call score of the fitted dose curve at least 0.9, where 1 is the maximum; inactive means score below 0.9.
Just give me one of these, please: 1 = active, -1 = inactive

Example cases with answers are listed next.
compound	group.label
CN(C)NC(=O)CCC(=O)O	-1
CC(COc1ccc(Oc2ccccc2)cc1)Oc1ccccn1 (stereo not given)	-1
CCCCOC(=O)c1ccccc1C(=O)O	-1

Query string: # fetch the recorded call for CCOP(=O)(SC(C)CC)N1CCSC1=O (stereo not given) here
Result string: -1

Query string: Test call, this compound: C=C(C)[C@H]1Cc2c(ccc3c2O[C@@H]2COc4cc(OC)c(OC)cc4[C@@H]2C3=O)O1
Result string: 1

* * *

test: APR_HepG2_p53Act_72hr: Apredica 72-hour HepG2 Assay for p53 Activation (AID 2282923); details: high-content imaging, actives raise or lower the signal;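 note: average cellular p53 protein immunofluorescence intensity in HepG2 cells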
The source made the active and inactive calls. Rule for the calls: active = hit-call score of the fitted dose curve at least 0.9, where 1 is the maximum; inactive = score below 0.9.
quantity: outcome

1) COP(=O)(OC)SCn1c(=O)oc2cc(Cl)cnc21 inactive
2) CCOC(=O)COc1cc(-c2nn(C)c(OC(F)F)c2Cl)c(F)cc1Cl inactive
3) CCC(=O)Nc1ccc(Cl)c(Cl)c1 inactive
